# target_under_test: brain CCK receptor (Mus musculus)
# Construct: from tissue; host or cells: forebrain membranes of male CF-1 mice
# Sequence (P56481 1-453): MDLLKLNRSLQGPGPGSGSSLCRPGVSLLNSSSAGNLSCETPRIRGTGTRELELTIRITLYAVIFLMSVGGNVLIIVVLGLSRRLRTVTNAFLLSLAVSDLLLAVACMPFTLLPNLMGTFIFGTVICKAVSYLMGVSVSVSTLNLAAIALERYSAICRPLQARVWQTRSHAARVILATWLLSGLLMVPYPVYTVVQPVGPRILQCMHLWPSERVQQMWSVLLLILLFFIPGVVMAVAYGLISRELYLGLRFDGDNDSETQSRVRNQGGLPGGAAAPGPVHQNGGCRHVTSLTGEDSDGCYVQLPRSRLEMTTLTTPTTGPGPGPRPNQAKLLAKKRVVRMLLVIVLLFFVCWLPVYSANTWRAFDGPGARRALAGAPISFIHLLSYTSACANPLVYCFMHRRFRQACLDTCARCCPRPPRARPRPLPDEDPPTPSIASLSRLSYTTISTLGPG
# measurement_notes: CCK receptor binding, mouse brain membranes (125I-CCK-8 sulfate)
# condition_parameters: at 1 μM; read-out: Brain Percent Inhibition
# Experimental: Brain CCK receptor binding was performed using mouse brain membranes according to the method of Chang and Lotti (Proc. Natl. Acad. Sci. 83: 4923-4926, 1986). Male CF-1 mice, 23-25 g were sacrificed by cervical dislocation, the forebrain removed and placed in ice cold 50 mM Tris buffer, pH 7.4. […] The filters were washed twice with 3 ml of 50 mM Tris buffer, pH 7.4, containing 0.01% BSA and then counted for radioactivity in plastic tubes with a Micromedic 10/600 automatic gamma counter. […]
value_type: inhibition at 1 µM (%)
One number for each entry, in %.

{"columns": ["compound", "unit_of_measure", "measured"],
 "data": [
  ["O=C1NN(C(=O)Nc2ccc(Oc3ccccc3)cc2)[C@@H](c2ccccc2)[C@@H]1c1ccccc1 (relative stereo) [Example 37]", "%", 82]
]}

// each listed compound needs a value for inhibition at 1 µM
1. O=C1NN(C(=O)Nc2ccc(F)cc2F)[C@H](c2ccccc2)[C@H]1c1ccccc1 (relative stereo) [Example 56]
2. O=C1NN(C(=O)Nc2ccc3c(c2)OCO3)[C@H](c2ccccc2)[C@H]1c1ccccc1 (relative stereo) [Example 52]
3. O=C(Nc1ccc(C(F)(F)F)cc1)N1N[C@@H](c2ccccc2)[C@H](c2ccccc2)C1=O (relative stereo) [Example 83]
4. O=C1NN(C(=O)Nc2cc(C(F)(F)F)cc(C(F)(F)F)c2)[C@H](c2ccccc2)[C@H]1c1ccccc1 (relative stereo) [Example 58]
5. CCOC(=O)c1ccc(NC(=O)N2NC(=O)[C@@H](c3ccccc3)[C@@H]2c2ccccc2)cc1 (relative stereo) [Example 22]

### Response
1: 25; 2: 60; 3: 37; 4: 10; 5: 42

====

# target_under_test: brain CCK receptor (Mus musculus, UniProt P56481)
# Construct: from tissue; host or cells: forebrain membranes of male CF-1 mice
# measurement_notes: CCK receptor binding, mouse brain membranes (125I-CCK-8 sulfate)
# condition_parameters: at 10 μM; read-out: Brain Percent Inhibition
The threshold is inclusive: inhibition at 10 µM of exactly 40% counts as MET; values below receive NOT MET.

Example entries and their recorded answers appear below.
{"columns": ["molecule", "target_under_test", "class_assignment"],
 "data": [
  ["CN(C(=O)N1NC(=O)[C@@H](c2ccccc2)[C@@H]1c1ccccc1)c1ccc(Cl)cc1 (relative stereo)", "brain CCK receptor (Mus musculus, UniProt P56481)", "MET"],
  ["O=C1NN(C(=O)NCCc2ccc(Cl)cc2)[C@@H](c2ccccc2)[C@@H]1c1ccccc1 (relative stereo)", "brain CCK receptor (Mus musculus, UniProt P56481)", "MET"],
  ["CC(C)C1C(c2ccccc2)C(=O)NN1C(=O)Nc1ccc(Br)cc1 (stereo not shown)", "brain CCK receptor (Mus musculus, UniProt P56481)", "NOT MET"]
]}

### Prompt Please indicate if the recorded inhibition at 10 µM for O=C(Nc1cccc(C(F)(F)F)c1)N1N[C@@H](c2ccccc2)[C@H](c2ccccc2)C1=O (relative stereo) meets or exceeds 40%.
### Response NOT MET

### Prompt Please indicate if the recorded inhibition at 10 µM for CCCCNC(=O)N1NC(=O)[C@H](c2ccccc2)[C@H]1c1ccccc1 (relative stereo) meets or exceeds 40%.
### Response MET
